protocol notes: folding stability dG unfold (combined trypsin and chymotrypsin); higher = more stable
readout type: folding stability dG unfold (kJ/mol)
Give the quantity in kJ/mol, number only.

SAGGMKVEVEKDPIKDGTTITVETGLDPEEVRAFLEELLGPPLEDVTFETAPDGTLVVTARVPPDVGSAGGS [r16_605_JUSTAS] | 3.42
SAGGIIIYPKDPDGKQRPIPPEVIRRIVDTIARRYGFEIKIDIEIEPTNDYWVITIPIEIEGLPPEQLSAGG [r13_790_TrROS] | 9.13
SAGGSAGGSKEPIRVDEFEWRKNKDGMDMVQVTFPNNGKDIHLPPEHLDNLEPGDEIPLDDLISAGGSAGGS [r20_3_TrROS] | -0.578
DTVTIVVEGMSEEEVLEKARAAAEELAKEGKTVEIVVKLSPEALKKAGVEKVEEVEDEETGLLVIKVEVKPS [r1_467_TrROS_Hall] | 2.86
SAGGSAGGSAGGDKKDPGQPRQEVEIEIPVYDPNGKPKGPIEITMPAGQSLDEIADEIFNSAGGSAGGSAGG [r7_110_TrROS] | 3.92

Input: Record request: folding stability dG unfold value, item SAGMVIELKTEEEAKAKAEEIAKKNPEANVTLVVTDPETGVKTVIPVKIESPKPKPEFDKKNGKYKDKGSAG [r5_870_JUSTAS]
Output: -0.0561

Input: Returns the measured folding stability dG unfold for the input sequence. Input: SAGGPWVVIKIRTPNKPIEIPIPGFKIENTGDSMTIVFPPDDPDQVLDALEKASPGIKITKIEVVKPSAGGS [r8_490_TrROS]
Output: 2.41
